# Read-out: matrix metalloproteinase-1 (MMP1), MMP1 (gene 4312)
# protocol_text: LTEA_HepaRG_MMP1: Life Technologies and Expression Analysis (LTEA) Assay for matrix metalloproteinase-1 (MMP1) using HepaRG (AID 2283658)
# condition: mRNA level, 48 h; actives raise or lower the signal
# Procedure: LTEA_HepaRG is a cell based, multiplexed-readout assay that uses HepaRG, a human liver cell line, with measurements taken at 48 hours after chemical dosing on a 96-well plate.LTEA_HepaRG_MMP1 is one of 102 assay component(s) measured in the LTEA HepaRG cell culture assay. It is a marker of Fibrosis.Data from the assay component LTEA_HepaRG_MMP1 was analyzed into 1 endpoint. […]
Calls of active or inactive are those of the source. The calls were made as follows: active = hit-call score of the fitted dose curve at least 0.9, where 1 is the maximum; inactive = score below 0.9.
quantity_measured: outcome

chemical_string=C#C[C@]1(O)CC[C@H]2[C@@H]3CCC4=CC(=O)CC[C@@H]4[C@H]3CC[C@@]21C assay_value=inactive
chemical_string=C=C(C)C(=O)OCCC(F)(F)C(F)(F)C(F)(F)C(F)(F)C(F)(F)C(F)(F)F assay_value=inactive
chemical_string=ClC1=C(Cl)C(Cl)(Cl)C(Cl)=C1Cl assay_value=inactive
chemical_string=CC(C)(C)c1cc(C(C)(C)C)c(O)c(C(C)(C)C)c1 assay_value=inactive
